Biological target: Ribonucleotide reductase (Homo sapiens, UniProt P23921+Q7LG56)
Sequence (P23921 whole entry): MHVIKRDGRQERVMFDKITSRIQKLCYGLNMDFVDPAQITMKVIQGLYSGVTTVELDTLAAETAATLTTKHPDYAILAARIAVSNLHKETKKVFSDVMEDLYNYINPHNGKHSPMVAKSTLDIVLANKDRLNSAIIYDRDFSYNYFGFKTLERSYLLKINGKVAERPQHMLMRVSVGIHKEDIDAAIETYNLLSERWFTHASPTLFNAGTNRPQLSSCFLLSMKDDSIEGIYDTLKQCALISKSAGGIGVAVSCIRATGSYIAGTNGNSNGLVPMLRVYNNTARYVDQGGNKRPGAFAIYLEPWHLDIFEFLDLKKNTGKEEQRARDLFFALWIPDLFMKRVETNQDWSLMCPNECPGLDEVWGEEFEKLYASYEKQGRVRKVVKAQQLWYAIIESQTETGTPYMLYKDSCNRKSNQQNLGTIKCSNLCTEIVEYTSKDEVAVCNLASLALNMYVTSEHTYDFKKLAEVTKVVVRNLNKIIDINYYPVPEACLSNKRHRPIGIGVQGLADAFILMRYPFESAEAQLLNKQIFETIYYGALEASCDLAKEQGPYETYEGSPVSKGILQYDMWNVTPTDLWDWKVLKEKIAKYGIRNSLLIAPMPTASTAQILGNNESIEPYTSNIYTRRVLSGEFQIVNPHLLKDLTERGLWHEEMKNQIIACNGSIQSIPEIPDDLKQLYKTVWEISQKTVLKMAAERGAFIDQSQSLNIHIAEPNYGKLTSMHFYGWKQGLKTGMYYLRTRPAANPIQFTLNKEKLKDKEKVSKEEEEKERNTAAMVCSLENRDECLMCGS
Sequence (Q7LG56 whole entry): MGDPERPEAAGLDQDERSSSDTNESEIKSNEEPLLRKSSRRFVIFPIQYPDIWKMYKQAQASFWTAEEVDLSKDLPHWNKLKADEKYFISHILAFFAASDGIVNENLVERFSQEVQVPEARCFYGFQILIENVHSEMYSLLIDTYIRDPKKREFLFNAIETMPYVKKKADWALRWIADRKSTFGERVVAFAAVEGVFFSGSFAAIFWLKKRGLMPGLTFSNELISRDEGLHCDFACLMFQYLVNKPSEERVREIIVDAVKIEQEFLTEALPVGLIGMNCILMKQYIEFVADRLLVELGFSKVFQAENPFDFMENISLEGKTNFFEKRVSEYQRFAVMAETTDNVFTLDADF
Test: Competitive inhibition of human recombinant ribonucleotide reductase in presence of varying levels of ATP by Dixon plot
measurement.kind: Ki (µM)
One number for each entry, in µM.

If you can, please state the reported Ki value of `CCCC(CCC)C(=O)OC[C@H]1O[C@@H](n2cnc3c(N)ncnc32)[C@H](O)[C@]1(C)O` .
400

###

Test system: HeLa
Assay: Growth inhibition of human HeLa cells after 48 hrs by MTT assay
Format: functional, cell-based
Settings: Homo sapiens, HeLa, 48 h; read-out: IC50
Provide the reported pIC50 of each item.
Answers are plain numbers, as −log10 of the molar value.

C[C@@]1(O)[C@@H](CO)O[C@@H](n2cnc3c(N)ncnc32)[C@@H]1O = 4.63

Go through the list and state pIC50 for each entry.
1. CCCC(CCC)C(=O)OC[C@H]1O[C@@H](n2cnc3c(N)ncnc32)[C@H](OC(=O)C(CCC)CCC)[C@]1(C)O
2. CCCC(CCC)C(=O)O

[4.26, 3.00]

###

Give measured pIC50 for each item. Keep answers brief.
Assay: Growth inhibition of human HL60 cells after 48 hrs by MTT assay
Assay type: functional, cell-based, HL-60
Conditions: Homo sapiens, HL-60, 48 h; read-out: IC50
Answers are plain numbers, as −log10 of the molar value.

CCCC(CCC)C(=O)OC[C@H]1O[C@@H](n2cnc3c(N)ncnc32)[C@H](O)[C@]1(C)O = 4.17
CCCC(CCC)C(=O)OC[C@H]1O[C@@H](n2cnc3c(N)ncnc32)[C@H](OC(=O)C(CCC)CCC)[C@]1(C)O = 4.79
CCCC(CCC)C(=O)O[C@H]1[C@H](n2cnc3c(N)ncnc32)O[C@H](CO)[C@@]1(C)O = 3.19
CCCC(CCC)C(=O)O = 2.77

Please look up its pIC50: `C[C@@]1(O)[C@@H](CO)O[C@@H](n2cnc3c(N)ncnc32)[C@@H]1O`
4.81

###

Answer each item with its documented half-life.
Experiment: Half life in RPMI-1640 medium containing 10% fetal calf serum assessed as compound disappearance by HPLC-DAD-ESI-MS method
Assay type: ADME, Bos taurus
Conditions: cattle

Reference set, count: 3
CCCC(CCC)C(=O)O[C@H]1[C@H](n2cnc3c(N)ncnc32)O[C@H](CO)[C@@]1(C)O = > 72 h
C[C@@]1(O)[C@@H](CO)O[C@@H](n2cnc3c(N)ncnc32)[C@@H]1O = 43.5 h
CCCC(CCC)C(=O)OC[C@H]1O[C@@H](n2cnc3c(N)ncnc32)[C@H](O)[C@]1(C)O = > 72 h

# get_value(readout='half-life', item= `CCCC(CCC)C(=O)OC[C@H]1O[C@@H](n2cnc3c(N)ncnc32)[C@H](OC(=O)C(CCC)CCC)[C@]1(C)O` )
> 72 h
